For each record, write down the corresponding Ratio Ki.
organism: Homo sapiens; experiment: Selectivity ratio of Ki for human delta opioid receptor to Ki for human kappa opioid receptor
Simply state the number, no unit and no words.

Exam item: Specify Ratio Ki for "CN(C)c1nc2cc3c(cc2s1)C[C@@H]1[C@@H]2CCCC[C@]32CCN1CC1CC1" and stop.
Marked response: 140

Exam item: State, in one line, measured Ratio Ki of "Oc1cccc(CNc2nc3cc4c(cc3s2)C[C@@H]2[C@@H]3CCCC[C@]43CCN2CC2CC2)c1"
Marked response: 8

Exam item: Look up and report measured Ratio Ki for this entry: "CCN(C(C)=O)c1nc2cc3c(cc2s1)C[C@@H]1[C@@H]2CCCC[C@]32CCN1CC1CC1"
Marked response: 57

Exam item: Tell me Ratio Ki reported for "c1ccc(CNc2nc3cc4c(cc3s2)C[C@@H]2[C@@H]3CCCC[C@]43CCN2CC2CC2)cc1"
Marked response: 20

Exam item: Give the value of Ratio Ki reported for the following: "Nc1nc2cc3c(cc2s1)C[C@@H]1[C@@H]2CCCC[C@]32CCN1C[C@@H]1CCCO1"
Marked response: 67

Exam item: Return Ratio Ki (reported value) for this compound: "Nc1nc2cc3c(cc2s1)C[C@@H]1[C@@H]2CCCC[C@]32CCN1CC1CC1"
Marked response: 590

Exam item: Give Ratio Ki for "CC(=O)N(C)c1nc2cc3c(cc2s1)C[C@@H]1[C@@H]2CCCC[C@]32CCN1CC1CC1"
Marked response: 160

Exam item: Identify measured Ratio Ki corresponding to "CC(=O)Nc1nc2cc3c(cc2s1)C[C@@H]1[C@@H]2CCCC[C@]32CCN1CCCF"
Marked response: 180

* * *

organism: Homo sapiens; assay: Selectivity ratio of Ki for human mu opioid receptor to Ki for human kappa opioid receptor
Measured Quantity: Ratio Ki
I'd appreciate a reply containing only the number, no unit.

Exam item: Supply Ratio Ki value. Item: "CCNc1nc2cc3c(cc2s1)C[C@@H]1[C@@H]2CCCC[C@]32CCN1CC1CCC1"
Marked response: 0.3

Exam item: // Input: "c1ccc(Nc2nc3cc4c(cc3s2)C[C@@H]2[C@@H]3CCCC[C@]43CCN2CC2CC2)cc1" . Output its Ratio Ki only.
Marked response: 9

Exam item: Hello, please tell me recorded Ratio Ki for this one: "CN(C)c1nc2cc3c(cc2s1)C[C@@H]1[C@@H]2CCCC[C@]32CCN1CC1CC1"
Marked response: 22

Exam item: Item "Oc1cccc(CNc2nc3cc4c(cc3s2)C[C@@H]2[C@@H]3CCCC[C@]43CCN2CC2CC2)c1" : provide Ratio Ki
Marked response: 3

Exam item: Read the entry "CNc1nc2cc3c(cc2s1)C[C@@H]1[C@@H]2CCCC[C@]32CCN1CC1CCC1" and write its reported Ratio Ki.
Marked response: 1

Exam item: Return Ratio Ki (reported value) for this compound: "Nc1nc2cc3c(cc2s1)C[C@@H]1[C@@H]2CCCC[C@]32CCN1CCCF"
Marked response: 9

Exam item: For "Nc1nc2cc3c(cc2s1)C[C@@H]1[C@@H]2CCCC[C@]32CCN1CC1CC1" , write its Ratio Ki.
Marked response: 30

Exam item: Supply reported Ratio Ki belonging to this compound: "c1ccc(CNc2nc3cc4c(cc3s2)C[C@@H]2[C@@H]3CCCC[C@]43CCN2CC2CC2)cc1"
Marked response: 5

Exam item: State, in one line, measured Ratio Ki of "CCN(C(C)=O)c1nc2cc3c(cc2s1)C[C@@H]1[C@@H]2CCCC[C@]32CCN1CC1CC1"
Marked response: 4

Exam item: Please indicate Ratio Ki recorded for "FC(F)(F)CNc1nc2cc3c(cc2s1)C[C@@H]1[C@@H]2CCCC[C@]32CCN1CC1CC1"
Marked response: 25

Exam item: Tell me its Ratio Ki given "CCCNc1nc2cc3c(cc2s1)C[C@@H]1[C@@H]2CCCC[C@]32CCN1CC1CC1" as the entry.
Marked response: 11

Exam item: Please look at this compound and report its Ratio Ki: "CCNC(=S)Nc1nc2cc3c(cc2s1)C[C@@H]1[C@@H]2CCCC[C@]32CCN1CC1CC1"
Marked response: 7

Exam item: Supply Ratio Ki value. Item: "CC(=O)Nc1nc2cc3c(cc2s1)C[C@@H]1[C@@H]2CCCC[C@]32CCN1CC1CC1"
Marked response: 4

Exam item: Let me know recorded Ratio Ki for "c1ccc(Nc2nc3cc4c(cc3s2)C[C@@H]2[C@@H]3CCCC[C@]43CCN2CC2CC2)nc1" , thanks.
Marked response: 6

Exam item: // Input: "CCCNc1nc2cc3c(cc2s1)C[C@@H]1[C@@H]2CCCC[C@]32CCN1CCCF" . Output its Ratio Ki only.
Marked response: 4

Exam item: Complete the entry with Ratio Ki for "CN1CC[C@]23CCCC[C@H]2[C@H]1Cc1cc2sc(N)nc2cc13"
Marked response: 0.17

Exam item: Please report Ratio Ki for the following compound: "CC(=O)N(C)c1nc2cc3c(cc2s1)C[C@@H]1[C@@H]2CCCC[C@]32CCN1CC1CC1"
Marked response: 16

Exam item: Please supply the value of reported Ratio Ki for the item "Nc1nc2cc3c(cc2o1)[C@@]12CCCC[C@H]1[C@@H](C3)N(CC1CC1)CC2"
Marked response: 3

Exam item: For the compound "CN(C)c1nc2cc3c(cc2s1)C[C@@H]1[C@@H]2CCCC[C@]32CCN1CCCF" , give its reported Ratio Ki.
Marked response: 7

Exam item: State, in one line, measured Ratio Ki of "Nc1nc2cc3c(cc2s1)C[C@@H]1[C@@H]2CCCC[C@]32CCN1C[C@@H]1CCCO1"
Marked response: 3

Exam item: Output measured Ratio Ki for this item: "COc1cccc(CNc2nc3cc4c(cc3s2)C[C@@H]2[C@@H]3CCCC[C@]43CCN2CC2CC2)c1"
Marked response: 2

Exam item: Supply reported Ratio Ki belonging to this compound: "Nc1nc2cc3c(cc2s1)C[C@@H]1[C@@H]2CCCC[C@]32CCN1CC1CCC1"
Marked response: 9

Exam item: Answer with the recorded Ratio Ki of "CC(=O)Nc1nc2cc3c(cc2s1)C[C@@H]1[C@@H]2CCCC[C@]32CCN1CCCF" only.
Marked response: 13

Each recorded value in this set is attributed to ChEMBL document CHEMBL1765082.
